- System: MS2 coat protein
- test-name: apparent KD of MS2 coat protein, switch ON state; designed switch direction (-1 OFF switch, 1 ON switch): -1; higher = weaker reporter binding
- conditions-used: FMN input: 0 or 200 uM; Eterna round: R93 (includes R88 designs)
Given measured apparent KD of MS2 coat protein, output satisfied if it is greater than or equal to 30 nM and not satisfied if not.

Is it the case that AUAAGUCGAGGAUAUACGAAAUGCUAGCGAAAGCUAGCAUAACAUGAGGAUCACCCAUGUAGAAGGCGACAAUA [Tetraloop hairpin BlockHead... 61% 3] has apparent KD of MS2 coat protein reaching or exceeding 30 nM?
not satisfied

# check: apparent KD of MS2 coat protein of AAAAGGAUAGGAUAUACAUGAGGAUCACCCAUGUGAAUAAAUAAAAUAAAUAAAUAAAGUAGAAGGGUCAAUAA [LROPPY Exclusion 3 - v05_deltaG=3.6 break up the As] is greater than or equal to 30 nM
not satisfied

Check if apparent KD of MS2 coat protein >= 30 nM (inclusive). Item: AAGAAGUCAGGAUAUGCUGCUCGUCACAAAAGUGAUGAGUAGCAGAAGGGACAUGAGGAUCACCCAUGUAAACA [Opal 34]
satisfied

Please indicate if the recorded apparent KD of MS2 coat protein for AGAGAGAGAGGAUAUACAUGAGGAUCACCCAUGUAAAAGAAAGAAAAGGGAAAGAAAAGUAGAAGGCUCAGAGA [Ruby 65] meets or exceeds 30 nM.
satisfied

Identify whether the reported apparent KD of MS2 coat protein of the following sequence is 30 nM or greater: AAGAAACAUGAGGAUCACCCAUGUGAGGAUAUACAAAAGAAAAGAAAAGAAAGAAGAAGUAGAAGGUACAAAGG [Merenre Nemtyemsaf II]
not satisfied

* * *

- Test system: MS2 coat protein
- test-name: apparent KD of MS2 coat protein; designed switch direction (-1 OFF switch, 1 ON switch): 1; higher = weaker reporter binding
- conditions-used: input ligand: none
Examples of sequences with documented apparent KD of MS2 coat protein follow.
Numbers only; they are read as nM.

AUUUUUAAUGCAGGAUAUGAUUAACAUGAGGAUCACCCAUGUGGUGUUGUGAGUAAGGAGAGUGAUCAGAAGGGCAAUUUUUUU [JMF's solution 78] (Eterna round: R96, puzzle: Same State NG 2) = 433
UAGUGAUUGCAAGGAUAUGCUAGUUUUUAUUUGUGUUUGAUAACAAACAUGAGGAUCACCCAUGUGCAGAAGGUGCAAGAUAUG [JR_SSNG2_Sub078] (Eterna round: R96, puzzle: Same State NG 2) = 647
AGAUCAUGACGAGGAUAUGGUACAUGAGGAUCACCCAUGUAUGUACCAUAGCAACAGCUAGGAAACCAGAAGGCGUCGUGGUCA [jandersonlee JLSSNG2 1.18 Native F5 + F7] (Eterna round: R96, puzzle: Same State NG 2) = 26.6

With those in mind, consider the next sequence.
Reported apparent KD of MS2 coat protein of ACAUGAGACGGAGGAUAUUUUGUACCUACAUGUGACAUGAGGAUCACCCAUGUGGUAAGUAUGAGAAAGAAGGCCGAGAUAUGU [Equivalence 19 - Jieux - Same State NG 2] (Eterna round: R96, puzzle: Same State NG 2) : 29.6

* * *

- Tested on: MS2 coat protein
- test-name: apparent KD of MS2 coat protein; designed switch direction (-1 OFF switch, 1 ON switch): 1; higher = weaker reporter binding
- conditions-used: input ligand: microRNA oligo, concentration not stated
Think of 0.09 µM as a floor: if apparent KD of MS2 coat protein stands on it or above, it is class 1; beneath it, class 0.

GCUGCAAGGGCAGGAUAUGGGUCCAAAGCGCAAGUGCGCUUUGGUACAUGAGGAUCACCCAUGUCCCAGAAGGGCCCAAACAGC [Bientierqu] (Eterna round: R96, puzzle: Same State NG 2) = class 0
AAAGAAACUACAGGAUAUGCGUGGGAAAGAUAGGCAGAAGGGUGGAUAAUAAAUUCCAGCACAUGAGGAUCACCCAUGUACUGG [Ince] (Eterna round: R96, puzzle: Same State NG 1) = class 0
CUACAGGCCAGAGGAUAUGGGAAAGGAAGUGUACCAGAAGGUUGGCCUCCUGAGUACAUGAGGAUCACCCAUGUAGAAAGGCGA [PowerStrip SSNG 1.6] (Eterna round: R96, puzzle: Same State NG 1) = class 0
GGUGCAAUAAACGCCUACAUGAGGAUCACCCAUGUAUGUAGGCAGGAUAUCGUAUGCAAAGCAUACGAGAAGGGCUGUAGUACC [Mat - Same State NG 3 - JL Mod - D42] (Eterna round: R96, puzzle: Same State NG 3) = class 1
UGGCUGGUGAUAGGAUAUACAUGAGGAAUCCUCGUAGAAGGAUCACGACAUGAGGAUCACCCAUGUAGCCGUCCGUAGACGGCU [salish99_SSNG1_r04_005] (Eterna round: R96, puzzle: Same State NG 1) = class 1

Could you tell me if the measured apparent KD of MS2 coat protein of GCGAGCGUACUUGCUACAUGAGGAUCACCCAUGUUCGUUGGACAGGAUAUGGUACCGUUUCGGUACCAGAAGGGUUCAUCAUGA [JL SSNG3 3.76] (Eterna round: R96, puzzle: Same State NG 3) reaches 0.09 µM or more?
class 1

Is it the case that UGUUGUAUUACAGGAUAUCUAUUAGGUUUAUUUAGAGAAGGGUAUUCACAUGAGGAUCACCCAUGUAUAUACGAGGAAGUUGUG [JMF's solution 87] (Eterna round: R96, puzzle: Same State NG 1) has apparent KD of MS2 coat protein reaching or exceeding 0.09 µM?
class 0

Is apparent KD of MS2 coat protein at least 0.09 µM? Consider AGCUAGUACGAAGGAUAUACAAACAUGAGGAUCACCCAUGUAUACAUGGUUUGAUGAGACUACAUGUAGAAGGUCGUACUAGCA [SameState NG2 #14] (Eterna round: R96, puzzle: Same State NG 2)
class 1

Determine whether this sequence has apparent KD of MS2 coat protein no lower than 0.09 µM: GGCGGCCUGGGAGGAUAUCGGGCCCUUUGGGCCCGAGAAGGUCCGGAGCCUCUGACAUGAGGAUCACCCAUGUAGGCUGCUGCC [first try] (Eterna round: R96, puzzle: Same State NG 1)
class 1

* * *

- Test system: MS2 coat protein
- test-name: apparent KD of MS2 coat protein, switch OFF state (with FMN for OFF switches, without FMN for ON switches); designed switch direction (-1 OFF switch, 1 ON switch): -1; higher = weaker reporter binding
- conditions-used: FMN input: 0 or 200 uM; Eterna round: R93 (includes R88 designs)
Item-by-item account of apparent KD of MS2 coat protein
Answer with a number only, understood to be in nM.

AAAAACUGAGGAUAUACAUGAGGAUCACCCAUGUGAAAGAAAGAAAAAAGAAAAGAAAGUAGAAGGCAGAAAAA [Ruby 76] = 29.5
AAAAAGUCAGGAUAUACAAAAGUGCGAAAGCACAAAAUGGGACAUGAGGAUCACCCAUGUAGAAGGGACAAGAA [JL In the Red 01 (Mod)] = 472
AAAAAACAUGAGGAUCACCCAUGUGAGGAUAUACAAAACCCAUAUAAAAAGGGAAAAAGUAGAAGGCGCAAAAA [wbt round 1 mod 8] = 24.3
AAAAUGUCAGGAUAUGCGAAGGCGUCUGACAGACGAGGAUUGCAGAAGGGACAUGAGGAUCACCCAUGUAAAAA [A Change in Energy (MS2 Riboswitch - Exclusion 4)] = 131
GGUUGGCGAGGAUAUACAUGAGGAUCACCCAUGUGAGAGAAAAAAGUGAGAAAGAAAAGUAGAAGGCGCUGACA [salish99-ex3-03] = 283
UAAAGGAUAGGAUAUACAUGAGGAUCACCCAUGUGAAUAAAUAAAAAAAUAAAAUAAAGUAGAAGGAUCAAUAA [LROPPY Exclusion 3 - v04_deltaG=3.9 break up As] = 34
AAGAAACAUGAGGAUCACCCAUGUCAGGAUAUUCAAAAGAAAAGAAAAGAAAGAAGAAGAAGAAGGGACAAAGG [Neferkare II] = 66.1
AGAAAACAUGAGGAUCACCCAUGUCAGGAUAUCAAAAAGAAAAGAAAAGAAAGAAGAAUGAGAAGGGACAAGAA [Khasekhem(wy)] = 32.1
AAGAACUGAGGAUAUACAUGAGGAUCACCCAUGUAAAAGAAAGAAGGGAAAGAGAAAAGUAGAAGGCAGAAGAA [Inamunnifnebu] = 27.8
AGCGAGUAAGGAUAUCGGAAAGGACACGAAAGUGACAAAGACGAGAAGGUACAUGAGGAUCACCCAUGUAAAAA [milkweed 25] = 17.8

So for AACAGUACAGGAUAUACAUGAGGAUCACCCAUGUGAAAAUUAAGUGGGAAACCACAAUGUAGAAGGGUACUGGA [Mat - Exclusion 3 - Eli mod - D50] , the logged apparent KD of MS2 coat protein turned out to be 109

Lab note: measured apparent KD of MS2 coat protein of AAAAUACGAGGAUAUACAUGAGGAUCACCCAUGUCAAAAAAUGACUACACAAAAGAAAGUAGAAGGCGUAAAAG [Mat - Exclusion 3 - Mayanna mod - D127] was 41.8
